run.description: CEETOX_H295R_11DCORT: CeeTox H295R High-throughput Steroidogenesis Assay for 11-Deoxycortisol (11DCORT) (AID 2283432)
measurement.parameters: actives raise or lower the signal
Calls of active or inactive are those of the source. Rule for the calls: active = hit-call score of the fitted dose curve at least 0.9, where 1 is the maximum; inactive = score below 0.9.
Outcomes: active, inactive

molecule.smiles: C#C[C@]1(O)CC[C@H]2[C@@H]3CCc4cc(O)ccc4[C@H]3CC[C@@]21C
label.class: active

molecule.smiles: COc1ccc2[nH]cc(CCNC(C)=O)c2c1
label.class: active

molecule.smiles: CC(=O)c1ccc2ccccc2c1
label.class: inactive

molecule.smiles: CCCc1ccc(O)cc1
label.class: inactive

molecule.smiles: O=c1cc(-c2ccc(O)cc2)oc2cc(O)cc(O)c12
label.class: active

molecule.smiles: OCCCO
label.class: inactive

molecule.smiles: CC=CC(=O)C1=C(C)C=CCC1(C)C
label.class: inactive

molecule.smiles: c1coc(CNc2ncnc3nc[nH]c23)c1
label.class: inactive
